Species on record: Mus musculus
TEST DESCRIPTION: Compound was tested for time to peak anticonvulsant effect (TPE)
Type: functional
OBSERVATION TYPE: TPE (h)
Value expressed in h; do not type the unit.

The cases that follow already have their TPE on record.
CC1(C)COC(Cn2ccnc2)(c2ccc3c(c2)Cc2ccccc2-3)OC1 : 2
CC(C(=O)c1ccc2c(c1)Cc1ccccc1-2)n1ccnc1 (centres undefined) : 1.5
O=C(Cn1ccnc1)c1cccc2c1Cc1ccccc1-2 : 2
Cc1cn(CC(=O)c2ccc3c(c2)Cc2ccccc2-3)cn1 : 1

Would you kindly share the measured TPE for Cc1ccc2c(c1)Cc1cc(C(=O)Cn3ccnc3)ccc1-2 ? 2

Would you kindly share the measured TPE for O=C(Cn1ccnc1)c1cc2ccccc2o1 ? 1.5

* * *

TEST DESCRIPTION: Compound was tested for its toxicity in rat; Ca 4550
Type: organism-based
TEST SETTINGS: in vivo
OBSERVATION TYPE: LD50 (mg/kg)
Value expressed in mg/kg; do not type the unit.

Would you kindly share the measured LD50 for O=C(Cn1ccnc1)c1ccc2c(c1)Cc1ccccc1-2 ? 4550

* * *

Species on record: Mus musculus
TEST DESCRIPTION: Compound was tested for time to peak anticonvulsant effect (TPE)
Assay type: functional
OBSERVATION TYPE: TPE (h)
Value expressed in h; do not type the unit.

The cases that follow already have their TPE on record.
O=C(Cn1ccnc1)c1ccc2c(c1)-c1ccccc1CC2 : 1
c1ccc2c(c1)Cc1cc(C3(Cn4ccnc4)OCCCO3)ccc1-2 : 1
c1ccc2c(c1)Cc1cc(C3(Cn4ccnc4)SCCS3)ccc1-2 : 2
CCc1nccn1CC(=O)c1ccc2c(c1)Cc1ccccc1-2 : 2
CCC(C(=O)c1ccc2c(c1)Cc1ccccc1-2)n1ccnc1 (stereo not given) : 1
c1ccc2c(c1)Cc1cc(C3(CCn4ccnc4)OCCO3)ccc1-2 : 1
O=C(CCCn1ccnc1)c1ccc2c(c1)Cc1ccccc1-2 : 0.5
O=C(Cn1ccnc1)c1ccc2c(c1)Cc1cc(Br)ccc1-2 : 2

Would you kindly share the measured TPE for COc1ccc2c(c1)Cc1cc(C(=O)Cn3ccnc3)ccc1-2 ? 2

Would you kindly share the measured TPE for O=C(Cn1ccnc1)c1ccc2c(c1)Cc1ccccc1-2 ? 3

Would you kindly share the measured TPE for c1ccc2c(c1)Cc1cc(C3(Cn4ccnc4)OCCO3)ccc1-2 ? 4

Would you kindly share the measured TPE for CC(C)c1ccc2c(c1)Cc1cc(C(=O)Cn3ccnc3)ccc1-2 ? 2

Would you kindly share the measured TPE for O=C(Cn1ccnc1)c1ccc2c(ccc3ccccc32)c1 ? 1

Would you kindly share the measured TPE for O=C(Cn1ccnc1)c1ccc2ccccc2c1 ? 1

Would you kindly share the measured TPE for O=C(Cn1ccnc1)c1ccc2ccc3ccccc3c2c1 ? 1

* * *

System: Mus musculus
TEST DESCRIPTION: Effective dose in mice by pentylenetetrazole assay (administered subcutaneously)
Assay type: functional
TEST SETTINGS: sc
Listed below: ED50 values for each entry.

The cases that follow already have their ED50 on record.
CC(C(=O)c1ccc2c(c1)Cc1ccccc1-2)n1ccnc1 (stereo unspecified) : 260 mg/kg
c1ccc2c(c1)Cc1cc(C3(CCn4ccnc4)OCCO3)ccc1-2 : > 400 mg/kg
O=C(Cn1ccnc1)c1cccc2c1Cc1ccccc1-2 : > 200 mg/kg

Would you kindly share the measured ED50 for O=C(Cn1ccnc1)c1ccc2ccc3ccccc3c2c1 ? > 400 mg/kg

Would you kindly share the measured ED50 for O=C(Cn1ccnc1)c1cc2ccccc2o1 ? > 400 mg/kg

Would you kindly share the measured ED50 for O=C(Cn1ccnc1)c1ccc2c(ccc3ccccc32)c1 ? > 400 mg/kg
